Overview of reported pIC50 across a group of compounds:
MEASUREMENT TARGET: KRAS Q61H (Homo sapiens, UniProt P01116+P62937, Q61H)
Sequence (P01116 1-169 isoform P01116-2 Q61H limits assumed): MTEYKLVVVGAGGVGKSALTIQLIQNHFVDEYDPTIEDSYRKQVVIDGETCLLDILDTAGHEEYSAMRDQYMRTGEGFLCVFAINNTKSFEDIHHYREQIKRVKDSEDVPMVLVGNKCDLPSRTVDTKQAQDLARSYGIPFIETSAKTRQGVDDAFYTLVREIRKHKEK
Sequence (P62937 whole entry): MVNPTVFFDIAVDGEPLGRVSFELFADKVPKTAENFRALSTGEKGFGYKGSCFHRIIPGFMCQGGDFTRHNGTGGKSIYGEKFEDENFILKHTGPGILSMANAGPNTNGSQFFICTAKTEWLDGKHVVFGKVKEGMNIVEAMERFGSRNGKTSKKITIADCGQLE
EXPERIMENTAL PROTOCOL: Disruption of BRAF RBD interaction with Ras (FRET / MOA assay, with Cyclophilin A)
Assay type: biochemical
CONDITION CONTEXT: KRAS Q61H; read-out: KRAS Q61H FRET data IC50
Text: Disruption of B-Raf Ras-Binding Domain (BRAF^RBD) Interaction with K-Ras by Compounds of the Invention (Also Called a FRET Assay or an MOA Assay) Note—The following protocol describes a procedure for monitoring disruption of K-Ras G12C (GMP-PNP) binding to BRAF^RBD by a compound of the invention. This protocol may also be executed substituting other Ras proteins or nucleotides. […]
pIC50: −log10 of the molar value.

{"columns": ["COMPOUND", "MEASUREMENT TARGET", "RECORDED VALUE"],
 "data": [
  ["C=CC(=O)N1CC[C@@H](N(C)C(=O)N(C)[C@H](C(=O)N[C@H]2Cc3nc(cs3)-c3ccc4c(c3)c(c(-c3cccnc3[C@H](C)OC)n4CC)CC(C)(C)COC(=O)[C@@H]3CCCN(N3)C2=O)C(C)C)C1", "KRAS Q61H (Homo sapiens, UniProt P01116+P62937, Q61H)", "7.00 to 8.00"]
]}

Exam item: I am curious: what pIC50 value has been reported for CCn1c(-c2cc(N3CCN(C)CC3)cnc2[C@H](C)OC)c2c3cc(ccc31)-c1cc(O)cc(c1)C[C@H](NC(=O)[C@H](C(C)C)N(C)C(=O)[C@@H]1OCC[C@@H]1c1ccccc1)C(=O)N1CCC[C@H](N1)C(=O)OCC(C)(C)C2 (atropisomer, axis not shown) ?
Marked response: > 8.00

Exam item: Can you check C=CC(=O)N1CC[C@H](C(=O)N(C)[C@H](C(=O)N[C@H]2Cc3cc(O)cc(c3)-c3cnc4c(c3)c(c(-c3ccccc3CCOC)n4CC)CC(C)(C)COC(=O)[C@@H]3CCCN(N3)C2=O)C(C)C)C1 next?
Marked response: 5.00 to 6.00

Exam item: Can you check CCn1c(-c2cccnc2[C@H](C)OC)c2c3cc(ccc31)-c1csc(n1)C[C@H](NC(=O)[C@H]1CCCO1)C(=O)N1CCC[C@H](N1)C(=O)OCC(C)(C)C2 (atropisomer, axis not shown) next?
Marked response: 6.00 to 7.00

Exam item: Can you check CCn1c(-c2cc(C3CCN(C)CC3)cnc2[C@H](C)OC)c2c3cc(ccc31)-c1csc(n1)C[C@H](NC(=O)[C@H](C(C)C)N(C)C(=O)N1CCOCC1)C(=O)N1CCC[C@H](N1)C(=O)OCC(C)(C)C2 (atropisomer, axis not shown) next?
Marked response: 7.00 to 8.00

Exam item: Can you check CCn1c(-c2cccnc2[C@H](C)OC)c2c3cc(ccc31)-c1csc(n1)C[C@H](NC(=O)[C@H](C(C)C)N(C)C(=O)N(C)C1CCC1)C(=O)N1CCC[C@H](N1)C(=O)OCC(C)(C)C2 (atropisomer, axis not shown) next?
Marked response: 7.00 to 8.00

Exam item: Can you check CCn1c(-c2cccnc2[C@H](C)OC)c2c3cc(ccc31)N1CCO[C@@](C)(CC(NC(=O)[C@H](C(C)C)N(C)C(=O)C3(F)CCN(C(=O)C#CC(C)(C)N(C)C)CC3)C(=O)N3CCC[C@H](N3)C(=O)OCC(C)(C)C2)C1 (stereo partly shown) next?
Marked response: 5.00 to 6.00

Exam item: Can you check C=CC(=O)N1CC[C@H](C(=O)N(C)[C@H](C(=O)N[C@H]2Cc3cc(O)cc(c3)-c3ccc4c(c3)c(c(-c3cncnc3)n4CC)CC(C)(C)COC(=O)[C@@H]3CCCN(N3)C2=O)C(C)C)C1 next?
Marked response: 5.00 to 6.00

Exam item: Can you check CCn1c(-c2cccnc2[C@H](C)OC)c2c3cc(ccc31)-c1csc(n1)C[C@H](NC(=O)[C@H](C(C)C)N(C)C(=O)N1CC([C@@H](C)NC)C1)C(=O)N1CCC[C@H](N1)C(=O)OCC(C)(C)C2 (atropisomer, axis not shown) next?
Marked response: 7.00 to 8.00

Exam item: Can you check CCn1c(-c2cccnc2[C@H](C)OC)c2c3cc(ccc31)-c1csc(n1)C[C@H](NC(=O)[C@H](C(C)C)N(C)C(=O)N1[C@H](C)COC[C@H]1C)C(=O)N1CCC[C@H](N1)C(=O)OCC(C)(C)C2 (atropisomer, axis not shown) next?
Marked response: > 8.00

Exam item: Can you check CCn1c(-c2cccnc2[C@H](C)OC)c2c3cc(ccc31)-c1csc(n1)C[C@H](NC(=O)[C@H](C(C)C)N(C)C(=O)N1CCCOCC1)C(=O)N1CCC[C@H](N1)C(=O)OCC(C)(C)C2 (atropisomer, axis not shown) next?
Marked response: 7.00 to 8.00

Exam item: Can you check CCn1c(-c2cccnc2[C@H](C)OC)c2c3cc(ccc31)-c1csc(n1)C[C@H](NC(=O)[C@H](C(C)C)N(C)C(=O)N1CC(C#N)C1)C(=O)N1CCC[C@H](N1)C(=O)OCC(C)(C)C2 (atropisomer, axis not shown) next?
Marked response: 7.00 to 8.00

Exam item: Can you check CCn1c(-c2cccnc2[C@H](C)OC)c2c3cc(ccc31)-c1csc(n1)C[C@H](NC(=O)[C@H](C(C)C)N(C)C(=O)N1CC3(CC3)C1)C(=O)N1CCC[C@H](N1)C(=O)OCC(C)(C)C2 (atropisomer, axis not shown) next?
Marked response: 7.00 to 8.00

Exam item: Can you check CCn1c(-c2cccnc2[C@H](C)OC)c2c3cc(ccc31)-c1csc(n1)C[C@H](NC(=O)[C@H](C(C)C)N1CCN(C)C1=O)C(=O)N1CCC[C@H](N1)C(=O)OCC(C)(C)C2 next?
Marked response: 6.00 to 7.00

Exam item: Can you check CCn1c(-c2cccnc2[C@H](C)OC)c2c3cc(ccc31)-c1csc(n1)C[C@H](NC(=O)[C@H](C(C)C)N(C)C(=O)N1CC(N(C)C(=O)C#CC(C)(C)N3CCC3)C1)C(=O)N1CCC[C@H](N1)C(=O)OCC(C)(C)C2 next?
Marked response: 7.00 to 8.00

Exam item: Can you check CCn1c(-c2cnccc2COC)c2c3cc(ccc31)-c1cc(O)cc(c1)C[C@H](NC(=O)[C@H](C(C)C)N1COCC1=O)C(=O)N1CCC[C@H](N1)C(=O)OCC(C)(C)C2 next?
Marked response: 7.00 to 8.00
